Test system: SW-620 colon
Test: NCI-60 one-dose screen, 48 h (100 = growth as untreated, 0 = no growth, -100 = all killed)
Conditions: 10 µM unless noted
This is part of a sample that, as a whole, favours compounds with a hit. Of some 83,000 tested, about 20% had one in any assay.
Measured growth accompanies every entry in the list below.
Measure: growth (%)

{"Compound structure": "COc1ccc(OC)c(NC(=O)CCCCCCNC(=O)C(O)(O)C(F)(F)F)c1", "System under test": "SW-620 colon", "Measure": "growth", "Recorded measurement": 6.62}
{"Compound structure": "Clc1ccc2c(N/N=C/c3c[nH]c4ccccc34)ccnc2c1", "System under test": "SW-620 colon", "Measure": "growth", "Recorded measurement": -74.8}
{"Compound structure": "CCOC(=O)Nc1ccc2c(ccn2C(=O)c2cccc(F)c2)c1", "System under test": "SW-620 colon", "Measure": "growth", "Recorded measurement": 26.3}
{"Compound structure": "CC(C)Sc1nc(-c2ccccc2)c(C#N)c(N2CCOCC2)n1", "System under test": "SW-620 colon", "Measure": "growth", "Recorded measurement": 74.2}
{"Compound structure": "CCOC(=O)c1c(N)c(C#N)cn1Cc1ccc(Cl)cc1Cl", "System under test": "SW-620 colon", "Measure": "growth", "Recorded measurement": 44.9}
{"Compound structure": "COc1ccccc1/C=C1\\Oc2ccc(O)c(O)c2C1=O", "System under test": "SW-620 colon", "Measure": "growth", "Recorded measurement": 105}

====

Test system: COLO 205 colon
Experiment: NCI-60 one-dose screen, 48 h (100 = growth as untreated, 0 = no growth, -100 = all killed)
Details: 10 µM unless noted
Experimental: Cells are grown in 96 well plates and exposed to the test compound for 48 hours. Compounds are tested at a single concentration, which is 10^-5 M for most compounds. The reported endpoint is percent growth (GI% or GIPRCNT), where numbers from 0 - 100% represent growth inhibition, and numbers from -100% - 0 represent cell death. For example, a value of 40 represents 60% growth inhibition. A value of 0 means no net growth occurred over the course of the experiment. […]
This is part of a sample that, as a whole, favours compounds with a hit. Of some 83,000 tested, about 20% had one in any assay.
Field: label. Allowed values: true (1) (growth < 70%) or false (0) (growth >= 70%).

{"Compound structure": "COc1ccc(/C(=N\\N=C(N)N)c2ccc(Cl)cc2)cc1OC", "Classification": "false (0)"}
{"Compound structure": "Cn1cc(-c2nc(N)nnc2-c2c[nH]c3ccc(Br)cc23)c2cc(F)ccc21", "Classification": "false (0)"}
{"Compound structure": "CN1CCN(c2ccc(Nc3nc(NCCCNS(=O)(=O)c4cccc5ccccc45)c4sccc4n3)cc2)CC1", "Classification": "true (1)"}
{"Compound structure": "Clc1ccc2[nH]cc(-c3nn4cc(-c5cccnc5)nc4s3)c2c1", "Classification": "false (0)"}
{"Compound structure": "CCOC(=O)c1c(NC(=O)c2cccc(C(F)(F)F)c2)sc2c3c(ccc12)OCN(C)C3", "Classification": "true (1)"}
{"Compound structure": "Brc1cccc(-c2cc(-c3ccc4c(c3)OC=CO4)[nH]n2)c1", "Classification": "true (1)"}
{"Compound structure": "O=C(COc1ccc(/C=C2\\C(=O)Nc3ccc(F)cc32)cc1)Nc1ccccc1", "Classification": "false (0)"}
{"Compound structure": "O=C(CSc1nnc(-c2ccc(Cl)cc2)n1-c1ccccc1)Nc1cccc(F)c1", "Classification": "false (0)"}
{"Compound structure": "COc1ccc(C(=NNS(=O)(=O)c2ccc(C)cc2)c2ccccc2)cc1OC", "Classification": "false (0)"}
{"Compound structure": "CNC(=O)c1cc(N2CCc3cc(NC(=O)Nc4ccc(N5CCN(C)CC5)c(C(F)(F)F)c4)ccc32)ccn1", "Classification": "false (0)"}
{"Compound structure": "CC1=C(C)C(=O)C(Nc2cccc(C)c2)=C(Br)C1=O", "Classification": "false (0)"}
{"Compound structure": "Cn1ncc2ncc(-c3ccc4ncc(C#N)c(N5CCc6cc(F)c(Cl)cc65)c4c3)cc21", "Classification": "true (1)"}
{"Compound structure": "C#CCOc1cccc(-c2nc(N)nc(Nc3ccccc3SSc3ccccc3Nc3nc(N)nc(-c4cccc(OCC#C)c4)n3)n2)c1", "Classification": "false (0)"}
{"Compound structure": "CC1=C(C)C(=O)C(Nc2ccc3c(c2)OCCO3)=C(Br)C1=O", "Classification": "false (0)"}
{"Compound structure": "Cc1ccc2c(n1)C(=O)C(Cl)=C(Nc1ccc(C(F)(F)F)cc1)C2=O", "Classification": "true (1)"}
{"Compound structure": "Fc1ccc(-c2cn3c(-c4c[nH]c5ccc(Br)cc45)csc3n2)cc1", "Classification": "false (0)"}
{"Compound structure": "Cn1c(SCC(=O)c2ccc(Br)cc2)nc2ccccc2c1=O", "Classification": "false (0)"}
{"Compound structure": "N#CC1=C2NCCCNc3oc(nc3C#N)Cc3ccccc3CC(=N1)O2", "Classification": "false (0)"}
{"Compound structure": "CCCNNC(=O)c1ccc(-c2ccc(NC(=O)CCCCCCC(=O)N[C@H](C(=O)N3C[C@H](O)C[C@H]3C(=O)N[C@@H](C)c3ccc(-c4scnc4C)cc3)C(C)(C)C)cc2)cc1", "Classification": "true (1)"}
{"Compound structure": "COc1ccc(NC(=O)CCCCCCNC(=O)C(O)(O)C(F)(F)F)cc1", "Classification": "true (1)"}
{"Compound structure": "Cn1c2nc3ccccc3c-2cc2ccccc21", "Classification": "true (1)"}
